Ref: paper PMC10481538

- protocolSummary: clinical
- particulars: both, human, in vivo, po, T1/2
half-life for assorted compounds

{"compound": "C[C@H]1[C@H](C)CC[C@]2(C(=O)O)CC[C@]3(C)C(=CC[C@@H]4[C@@]5(C)C[C@@H](O)[C@H](O)[C@@](C)(CO)[C@@H]5CC[C@]43C)[C@H]12", "valueUnit": "min", "half-life": 246}
{"compound": "O=C(O)/C=C/c1ccc(O)c(O)c1", "valueUnit": "min", "half-life": 504}
{"compound": "COc1cc(CCC(=O)O)ccc1O [DHFA, Dihydroferulic acid]", "valueUnit": "min", "half-life": 426}

---

Stability, percent of nominal concentration for assorted molecules
- protocolSummary: Analyte storage stability in human urine
- particulars: condition 1 long-term storage at −80°C, low concentration
metricName: Stability, percent of nominal concentration (%)

{"molecule": "COc1cc(CCC(=O)O)ccc1O [DHFA, Dihydroferulic acid]", "measurement": 79}
{"molecule": "O=C(O)CCc1ccc(O)c(O)c1 [DHCA, Dihydrocaffeic acid]", "measurement": 70}
{"molecule": "O=C(O)CCc1cccc(O)c1 [HPP, 3-(3-hydroxyphenyl) propionic acid]", "measurement": 48}
{"molecule": "COc1cc(/C=C/C(=O)O)ccc1O [FA, ferulic acid]", "measurement": 81}
{"molecule": "O=C(O)/C=C/c1ccc(O)c(O)c1 [CA, caffeic acid]", "measurement": 211}
